The reported measurements were obtained from PubChem BioAssay (NCI).

# System: M14 melanoma
# METHOD NOTES: NCI tumour cell line growth inhibition, 48 h
Reported TGI values for the following molecules.

These solved cases illustrate the format of a correct answer.
[
  {
    "MOLECULE": "Cc1cc(N(CCC#N)CCC#N)ccc1/C=C1/CN(N2C(=O)/C(=C/c3ccc(N(CCC#N)CCC#N)cc3C)N=C2c2ccccc2)C(c2ccccc2)=N1",
    "ASSAY READOUT": "TGI",
    "MEASURED VALUE": "> 100 µM"
  },
  {
    "MOLECULE": "COC(=O)c1cc(C)ccc1/C=C1\\Cc2cc(C)c(C)cc2C1=O",
    "ASSAY READOUT": "TGI",
    "MEASURED VALUE": "> 100 µM"
  },
  {
    "MOLECULE": "N=c1c2c(ncn1N)Oc1c(c(-c3ccccc3)nn1-c1ccccc1)C2c1ccc(Cl)cc1 (stereo unspecified)",
    "ASSAY READOUT": "TGI",
    "MEASURED VALUE": "3.18 µM"
  },
  {
    "MOLECULE": "COC(=O)C1=CC(O)CCC1c1ccc(OC)cc1 (stereo unspecified)",
    "ASSAY READOUT": "TGI",
    "MEASURED VALUE": "> 100 µM"
  },
  {
    "MOLECULE": "CCOC(=O)c1ccc2c(c1)nc1n2C(c2c(F)cccc2F)SC1 (stereo unspecified)",
    "ASSAY READOUT": "TGI",
    "MEASURED VALUE": "> 100 µM"
  },
  {
    "MOLECULE": "CC1=CC2=C(OCO1)C(=O)c1ccccc1C2=O",
    "ASSAY READOUT": "TGI",
    "MEASURED VALUE": "8.97 µM"
  },
  {
    "MOLECULE": "CC(C)=CCNc1ncnc2c1ncn2CCC(=O)OC(C)(C)C",
    "ASSAY READOUT": "TGI",
    "MEASURED VALUE": "> 100 µM"
  },
  {
    "MOLECULE": "CCOC(=O)CSc1nc2ccccc2c(=O)n1N",
    "ASSAY READOUT": "TGI",
    "MEASURED VALUE": "> 100 µM"
  }
]

Ask | Quick one: TGI of Cn1c(=O)n(-c2c3ccccc3c(Cl)c3ccccc23)n(C(C)(C)C)c1=O ?
Reply | > 100 µM

Ask | How about this molecule: CCCC(OCC)(OCC)OCC
Reply | > 100 µM

Ask | Now consider CC1CCCOc2ccc(cc2)C=Nc2ccc(cc2)CCc2ccc(cc2)N=Cc2ccc(cc2)OCCC1 (stereo unspecified) .
Reply | > 100 µM

Ask | Then this molecule: CCOC(=O)C(NNS(=O)(=O)c1ccc(C)cc1)S(=O)(=O)C(F)(F)C(F)(F)C(F)(F)C(F)(F)F (stereo unspecified)
Reply | > 100 µM

Ask | Then O=C(NNC(=S)Nc1ccccc1)C12CC3CC(CC(C3)C1)C2 ?
Reply | 67 µM

Ask | // next record O=C(Sc1c(-c2ccccc2)c(=O)n(-c2ccccc2)c(=S)n1-c1ccccc1)c1ccc(Cl)cc1
Reply | > 100 µM

Ask | Please answer likewise for CCc1ccc(C2=C/C(=C/c3ccc(Cl)cc3)C(=O)N2CCc2ccc(S(N)(=O)=O)cc2)cc1
Reply | 5.26 µM

Ask | Now this one: CCCCCCCCCCCCCOC(=O)c1c(C)[nH]c(/C=C2\N=C(c3ccc[nH]3)C=C2OC)c1C
Reply | 0.0461 µM

Ask | Moving on to Cc1ccc2c(c1)C(=O)/C(=C1/CCc3ccc(C)cc31)C2
Reply | > 100 µM

Ask | Now consider Cc1cc(C)c(C(=O)O)c(N)c1O .
Reply | > 100 µM

Ask | Another molecule: CCN1C(C)=NC2C(=O)c3ccccc3C(=O)C21 (stereo unspecified)
Reply | > 100 µM

Ask | One more molecule: COC(=O)C1([C@@H]2C[C@@H](O)[C@]3(C)CC/C=C(\C)CCC[C@H](C)[C@H](O)[C@@H]2O3)CC1
Reply | > 100 µM

Ask | What would you report for NC(=S)SCCC(=O)O ?
Reply | > 100 µM
